Data provenance: the Kinase Knowledgebase extract (Sharma et al. 2016)

Overview of reported pIC50 across a group of compounds:
# study.target: UniProt:P24941
# protocol.text: Cell-Based Assay
# test.parameters: mda-mb-435
pIC50: −log10 of the molar value.
reported.metric: pIC50

INSERT INTO measurements (smiles_string, study_target, reported_metric, value_measured) VALUES
  ('CC(C)c1[nH]nc2c1N=C(c1ccccc1Cl)c1cc(N)ccc1N2', 'UniProt:P24941', 'pIC50', '5.00 to 5.96'),
  ('Cc1[nH]nc2c1N=C(c1ccccc1Cl)c1cc(NS(=O)(=O)N(C)C)ccc1N2', 'UniProt:P24941', 'pIC50', '6.00 to 8.00'),
  ('Cc1[nH]nc2c1N=C(c1ccccc1F)c1cc(C(=O)NCCO)ccc1N2', 'UniProt:P24941', 'pIC50', '5.00 to 5.96'),
  ('Cc1[nH]nc2c1N=C(c1ccccc1)c1cc([N+](=O)[O-])ccc1N2', 'UniProt:P24941', 'pIC50', '6.00 to 8.00'),
  ('Cc1[nH]nc2c1N=C(c1ccccc1F)c1ccccc1N2', 'UniProt:P24941', 'pIC50', '5.00 to 5.96'),
  ('O=[N+]([O-])c1ccc2c(c1)C(c1ccccc1Cl)=Nc1c(n[nH]c1C(F)(F)F)N2', 'UniProt:P24941', 'pIC50', '5.00 to 5.96'),
  ('N#Cc1ccc2c(c1)C(c1ccccc1F)=Nc1c(n[nH]c1CO)N2', 'UniProt:P24941', 'pIC50', '6.00 to 8.00'),
  ('Nc1ccc2c(c1)C(c1ccccc1Cl)=Nc1c[nH]nc1N2', 'UniProt:P24941', 'pIC50', '4.52 to 5.00'),
  ('Cc1[nH]nc2c1N=C(c1ccccc1Cl)c1cc([N+](=O)[O-])ccc1N2', 'UniProt:P24941', 'pIC50', '6.00 to 8.00'),
  ('Cc1[nH]nc2c1N=C(c1ccccc1F)c1cc([N+](=O)[O-])ccc1N2', 'UniProt:P24941', 'pIC50', '6.00 to 8.00'),
  ('N#Cc1[nH]nc2c1N=C(c1ccccc1Cl)c1cc([N+](=O)[O-])ccc1N2', 'UniProt:P24941', 'pIC50', '4.52 to 5.00'),
  ('O=[N+]([O-])c1ccc2c(c1)C(c1ccccc1Cl)=Nc1c(n[nH]c1-c1cc[nH]n1)N2', 'UniProt:P24941', 'pIC50', '5.00 to 5.96'),
  ('CCCc1[nH]nc2c1N=C(c1ccccc1Cl)c1cc([N+](=O)[O-])ccc1N2', 'UniProt:P24941', 'pIC50', '4.52 to 5.00'),
  ('N#Cc1ccc2c(c1)C(c1ccccc1F)=Nc1c[nH]nc1N2', 'UniProt:P24941', 'pIC50', '5.00 to 5.96'),
  ('Cc1[nH]nc2c1N=C(c1ccccc1Cl)c1cc(NS(=O)(=O)N3CCOCC3)ccc1N2', 'UniProt:P24941', 'pIC50', '5.00 to 5.96'),
  ('Cc1[nH]nc2c1N=C(c1ccccc1F)c1cc(C#N)ccc1N2', 'UniProt:P24941', 'pIC50', '6.00 to 8.00'),
  ('NC(=O)c1[nH]nc2c1N=C(c1ccccc1Cl)c1cc([N+](=O)[O-])ccc1N2', 'UniProt:P24941', 'pIC50', '4.52 to 5.00'),
  ('Cc1[nH]nc2c1N=C(c1ccccc1Cl)c1cc(NS(C)(=O)=O)ccc1N2', 'UniProt:P24941', 'pIC50', '6.00 to 8.00'),
  ('O=[N+]([O-])c1ccc2c(c1)C(c1ccccc1Cl)=Nc1c(n[nH]c1-[o+]1ccnn1)N2', 'UniProt:P24941', 'pIC50', '4.52 to 5.00'),
  ('C=CC(=O)Nc1ccc2c(c1)C(c1ccccc1Cl)=Nc1c(n[nH]c1C)N2', 'UniProt:P24941', 'pIC50', '6.00 to 8.00'),
  ('O=[N+]([O-])c1ccc2c(c1)C(c1ccccc1Cl)=Nc1c(n[nH]c1-c1nccs1)N2', 'UniProt:P24941', 'pIC50', '4.52 to 5.00'),
  ('C=Cc1[nH]nc2c1N=C(c1ccccc1Cl)c1cc([N+](=O)[O-])ccc1N2', 'UniProt:P24941', 'pIC50', '6.00 to 8.00'),
  ('O=Cc1[nH]nc2c1N=C(c1ccccc1Cl)c1cc([N+](=O)[O-])ccc1N2', 'UniProt:P24941', 'pIC50', '6.00 to 8.00'),
  ('COc1ccc2c(c1)C(c1ccccc1Cl)=Nc1c(n[nH]c1C)N2', 'UniProt:P24941', 'pIC50', '5.00 to 5.96'),
  ('CC(=O)Nc1ccc2c(c1)C(c1ccccc1Cl)=Nc1c(n[nH]c1C)N2', 'UniProt:P24941', 'pIC50', '6.00 to 8.00'),
  ('Cc1[nH]nc2c1N=C(c1ccccc1Cl)c1cc(N)ccc1N2', 'UniProt:P24941', 'pIC50', '6.00 to 8.00'),
  ('O=[N+]([O-])c1ccc2c(c1)C(c1ccccc1Cl)=Nc1c(n[nH]c1C1CC1)N2', 'UniProt:P24941', 'pIC50', '6.00 to 8.00'),
  ('Cc1[nH]nc2c1N=C(c1ccccc1F)c1cc(C(=O)N3CCOCC3)ccc1N2', 'UniProt:P24941', 'pIC50', '5.00 to 5.96'),
  ('Cc1[nH]nc2c1N=C(c1ccccc1)c1cc(Cl)ccc1N2', 'UniProt:P24941', 'pIC50', '5.00 to 5.96'),
  ('Cc1cn[nH]c1-c1[nH]nc2c1N=C(c1ccccc1Cl)c1cc([N+](=O)[O-])ccc1N2', 'UniProt:P24941', 'pIC50', '5.00 to 5.96'),
  ('O=[N+]([O-])c1ccc2c(c1)C(c1ccccc1Cl)=Nc1c[nH]nc1N2', 'UniProt:P24941', 'pIC50', '4.52 to 5.00'),
  ('Cc1[nH]nc2c1N=C(c1ccccc1Cl)c1cc(NS(=O)(=O)NCCl)ccc1N2', 'UniProt:P24941', 'pIC50', '5.00 to 5.96'),
  ('Cc1[nH]nc2c1N=C(c1ccccc1)c1cc(F)ccc1N2', 'UniProt:P24941', 'pIC50', '6.00 to 8.00'),
  ('O=[N+]([O-])c1ccc2c(c1)C(c1ccccc1Cl)=Nc1c(n[nH]c1-[n+]1ccc[nH]1)N2', 'UniProt:P24941', 'pIC50', '4.52 to 5.00'),
  ('O=[N+]([O-])c1ccc2c(c1)C(c1ccccc1Cl)=Nc1c(n[nH]c1CO)N2', 'UniProt:P24941', 'pIC50', '6.00 to 8.00'),
  ('Cc1[nH]nc2c1N=C(c1ccccc1Cl)c1cc(Cl)ccc1N2', 'UniProt:P24941', 'pIC50', '5.00 to 5.96'),
  ('Cc1[nH]nc2c1N=C(c1ccccc1Cl)c1ccccc1N2', 'UniProt:P24941', 'pIC50', '5.00 to 5.96'),
  ('Cc1[nH]nc2c1N=C(c1ccccc1F)c1cc(C(=O)NCCN3CCOCC3)ccc1N2', 'UniProt:P24941', 'pIC50', '5.00 to 5.96'),
  ('COCc1[nH]nc2c1N=C(c1ccccc1Cl)c1cc([N+](=O)[O-])ccc1N2', 'UniProt:P24941', 'pIC50', '5.00 to 5.96'),
  ('O=[N+]([O-])c1ccc2c(c1)C(c1ccccc1F)=Nc1c[nH]nc1N2', 'UniProt:P24941', 'pIC50', '4.52 to 5.00');
